Molecular target: GluA1o-γ8 (GRIA1o-CACNG8 fusion construct; TARP γ8 dependent AMPA receptor) (Homo sapiens (Human), UniProt P42261+Q8WXS5)
Sequence (P42261 other isoform, or with tags, fused parts or gaps): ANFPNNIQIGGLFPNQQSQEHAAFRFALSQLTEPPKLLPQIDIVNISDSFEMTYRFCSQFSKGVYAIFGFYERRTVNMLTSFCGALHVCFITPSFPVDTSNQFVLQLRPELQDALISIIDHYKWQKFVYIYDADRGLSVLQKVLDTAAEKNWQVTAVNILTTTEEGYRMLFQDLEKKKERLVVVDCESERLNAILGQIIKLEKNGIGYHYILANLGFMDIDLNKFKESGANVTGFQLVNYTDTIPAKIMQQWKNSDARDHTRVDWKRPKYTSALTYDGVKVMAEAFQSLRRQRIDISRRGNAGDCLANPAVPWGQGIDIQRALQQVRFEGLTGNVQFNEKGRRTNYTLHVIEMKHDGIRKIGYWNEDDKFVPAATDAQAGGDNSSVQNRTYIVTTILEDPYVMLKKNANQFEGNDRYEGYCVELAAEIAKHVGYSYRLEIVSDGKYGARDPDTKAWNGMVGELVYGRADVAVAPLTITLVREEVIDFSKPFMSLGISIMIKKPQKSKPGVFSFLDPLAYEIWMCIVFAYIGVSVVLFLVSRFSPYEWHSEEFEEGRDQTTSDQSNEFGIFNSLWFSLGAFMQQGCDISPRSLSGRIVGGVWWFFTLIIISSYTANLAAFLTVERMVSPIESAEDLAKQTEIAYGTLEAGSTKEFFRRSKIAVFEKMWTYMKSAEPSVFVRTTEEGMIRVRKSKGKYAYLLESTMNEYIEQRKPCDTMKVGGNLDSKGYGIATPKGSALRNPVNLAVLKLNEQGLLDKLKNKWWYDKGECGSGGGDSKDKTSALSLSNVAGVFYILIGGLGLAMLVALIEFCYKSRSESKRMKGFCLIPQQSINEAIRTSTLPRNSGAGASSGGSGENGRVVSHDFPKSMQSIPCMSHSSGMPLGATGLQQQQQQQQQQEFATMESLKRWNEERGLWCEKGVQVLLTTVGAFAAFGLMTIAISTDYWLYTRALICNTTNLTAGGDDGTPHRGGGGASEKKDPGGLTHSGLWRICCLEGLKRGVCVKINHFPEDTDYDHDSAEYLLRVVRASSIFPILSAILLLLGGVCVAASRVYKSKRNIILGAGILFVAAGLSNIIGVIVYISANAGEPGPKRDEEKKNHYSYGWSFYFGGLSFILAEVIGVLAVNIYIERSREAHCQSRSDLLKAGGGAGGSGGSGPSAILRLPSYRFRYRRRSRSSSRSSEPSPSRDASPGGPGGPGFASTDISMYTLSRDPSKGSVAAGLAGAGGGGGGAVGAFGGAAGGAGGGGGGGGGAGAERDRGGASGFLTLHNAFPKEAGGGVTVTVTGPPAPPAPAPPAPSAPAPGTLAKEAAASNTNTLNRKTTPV
Assay: Calcium flux assay (FLIPR), inhibition of glutamate response of GluA1o-γ8 channel
Assay type: cell-based
Details: HEK293 cells stably expressing GRIA1o-CACNG8 fusion; 15 μM glutamate; pIC50 = negative log of IC50 in molar; read-out: GluR1-γ8 (pIC50) (converted)
Catalogue of compounds with associated IC50
Just the number in nM, nothing appended.

Worked set:
{"compound": "COC1CCN(c2nccc3c(-c4ccc5[nH]c(=O)sc5c4)c(-c4ccccc4)nn23)CC1", "test.result": 0.0631}
{"compound": "O=S1(=O)Cc2cc(-c3c(-c4ccc(F)cc4)nc4c(N5CC6(COC6)C5)nccn34)ccc2N1", "test.result": 15.8}
{"compound": "N#CC1CN(c2nccn3c(-c4ccc5c(c4)CC(=O)N5)c(-c4ccc(F)cc4)nc23)C1", "test.result": 3.98}
{"compound": "CC(=O)N1CCN(c2nccn3c(-c4ccc5[nH]ncc5c4)c(-c4ccc(F)cc4)nc23)CC1", "test.result": 0.2}
{"compound": "CN(C)c1nccc2c(-c3ccc4c(c3)CC(=O)N4)c(-c3ccc(F)cc3)nn12", "test.result": 1.58}
{"compound": "Cc1nccn2c(-c3ccc4c(c3)CC(=O)N4)c(-c3ccc(F)cc3)nc12", "test.result": 251}

Request: Need IC50 of CN(C(=O)c1nc2c(N3CCOCC3)nccn2c1-c1ccc2[nH]c(=O)[nH]c2c1)c1ccccc1 , thanks.
Result: 501

Request: Requested read-out: IC50. Entry: O=C1Cc2cc(-c3c(-c4ccc(F)cc4)nc4c(N5CC(Cl)C5)nccn34)ccc2N1
Result: 1.58

Request: Looking for the measured IC50 of O=C1Cc2cc(-c3c(-c4ccccc4)nn4c(N5CCOCC5)ncc(Br)c34)ccc2N1 , can you help?
Result: 0.398

----------
Target: GluA1o-γ8 (GRIA1o-CACNG8 fusion construct; TARP γ8 dependent AMPA receptor) (Homo sapiens (Human), UniProt P42261+Q8WXS5)
Experiment: Calcium flux assay (FLIPR), inhibition of glutamate response of GluA1o-γ8 channel
Format: cell-based
Conditions: HEK293 cells stably expressing GRIA1o-CACNG8 fusion; 15 μM glutamate; pIC50 = negative log of IC50 in molar; read-out: GluR1-γ8 (pIC50) (converted)
measured.endpoint: IC50 (nM)
Report as a plain number; the unit nM is understood.

The following molecules have reported results that may help.
{"molecule": "O=C1Cc2cc(-c3c(C(=O)NCc4ccccc4)nc4c(N5CCOCC5)nccn34)ccc2N1", "IC50 / nM": 31.6}
{"molecule": "O=C1Cc2cc(-c3c(-c4ccc(F)cc4)nc4c(N5CC[C@@H](O)[C@H](F)C5)nccn34)ccc2N1 (relative stereo)", "IC50 / nM": 0.158}
{"molecule": "O=C1Cc2cc(-c3c(-c4ccccc4)nn4c(N5CC[C@@H](O)[C@@H](F)C5)nccc34)ccc2N1 (relative stereo)", "IC50 / nM": 1.26}
{"molecule": "O=c1[nH]c2ccc(-c3c(-c4ccc(F)cc4)nc4c(N5CCOCC5)nccn34)cc2o1", "IC50 / nM": 3.16}
{"molecule": "CC(C)(C)OC(=O)N1CCN(c2nccn3c(-c4ccc(O)cc4)c(-c4ccc(F)cc4)nc23)CC1", "IC50 / nM": 631}
{"molecule": "CC(=O)N[C@@H]1CCN(c2nccn3c(-c4ccc5c(c4)CC(=O)N5)c(-c4ccc(F)cc4)nc23)C1 [Example 250]", "IC50 / nM": 39.8}
{"molecule": "Cc1cc(O)ccc1-c1c(-c2ccc(F)cc2)nc2c(N3CCOCC3)nccn12", "IC50 / nM": 31.6}
{"molecule": "CNc1nccn2c(-c3ccc4[nH]c(=O)[nH]c4c3)c(-c3ccc(F)cc3)nc12", "IC50 / nM": 6.31}
{"molecule": "O=C1Cc2cc(-c3c(-c4ccc(F)cc4)nn4c(N5CCOCC5)nccc34)ccc2N1", "IC50 / nM": 0.501}
{"molecule": "O=C1Cc2cc(-c3c(-c4ccc(F)cc4)nc4c(N5CCOCC5)ncc(Cl)n34)ccc2N1", "IC50 / nM": 0.126}

// next entry
Request: Query (molecule): O=C1Cc2cc(-c3c(-c4ccc(F)cc4)nc4c(N5CCC(F)CC5)nccn34)ccc2N1 ; field requested: IC50
Result: 0.0794
